The reported numbers originate from patent US11655235B2.

# assay target: recombinant human DPP7 (Homo sapiens)
# Construct: purchased R&D Systems
# assay overview: DPP7 inhibition, fluorogenic substrate Lys-Pro-AMC
# Format: biochemical
pIC50: −log10 of the molar value.
Response key: Met means pIC50 >= 6; Not met means pIC50 < 6.

Examples from the recorded data:
N#C[C@@H]1CCCN1C(=O)CN1CC[C@H](Oc2cccc3cnccc23)C1 = Not met
N#C[C@@H]1CC(F)(F)CN1C(=O)CN1CC[C@H](Nc2cnc3ccccc3c2)C1 = Met
COc1cc(NC2CCN(CC(=O)N3CCC[C@H]3C#N)CC2)c2cccnc2c1 = Met
COc1ccc2cc(N(C)[C@H]3CCN(CC(=O)N4CCC[C@H]4C#N)C3)cnc2c1 = Not met
N#C[C@@H]1CCCN1C(=O)CN1CCC(Nc2ccnc3ccccc23)CC1 = Met

Given the entry COc1cc(NC2CCN(CC(=O)N3C[C@@H](F)C[C@H]3C#N)CC2)c2cccnc2c1 , answer whether its pIC50 meets or surpasses 6.
Met
